The entries below come with measured pKd values attached.
# studyTarget: T1, cynomolgus tissue factor (cynomolgus TF, Sino Bio #90885-C08H) (cynomolgus monkey, UniProt P13726 33-251 (human entry))
# T1 construct: bought recombinant antigen; also called cyno TF
# T1 chain: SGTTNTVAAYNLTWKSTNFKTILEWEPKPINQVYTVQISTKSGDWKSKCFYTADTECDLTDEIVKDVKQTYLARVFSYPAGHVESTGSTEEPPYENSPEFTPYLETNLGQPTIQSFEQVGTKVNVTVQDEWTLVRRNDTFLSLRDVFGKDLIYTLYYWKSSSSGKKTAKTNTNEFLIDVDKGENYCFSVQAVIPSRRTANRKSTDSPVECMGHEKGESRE
# testDescription: Biacore SPR kinetics, antibody captured on anti-Fc, 1:1 Langmuir fit
pKd: −log10 of the molar value.
measuredEndpoint: pKd

>>> observed("mAb 49: aTF_2842-G04_HC2_Y180/F404TAG; aTF_2842-G04_LC2 (antibody, IgG1, V domains shown, non-natural amino acid (pAMF) at TAG sites Y180 and F404 (EU), * in the sequence, unconjugated full-length IgG1/kappa; also called 2842-G04 HC2/LC2) VH: QVQVQESGPGLVKPPGTLSLTCAVSGFSLSYYGVSWVRQPPGKGLEWIGTIDSSGRTYYNPSLKSRVTISNDNAPNTVSLKLSSVTAADTAVYYCARDFYGWNSGALDIWGQGTLVTVSS VL: DLQLTQSPSTLSASVGDRVTITCRASQSVYSNKYLSWYQQKPGKAPKLLIYKASTLASGVPSRFSGSGSGTEFTLTISSLQPDDFATYYCAAAYSDDSDTAFGQGTKVEIKR")
7.52
>>> observed("mAb 47: aTF_2842-B01_HC3_Y180/F404TAG; aTF_2842-B01_LC1 (antibody, IgG1, V domains shown, non-natural amino acid (pAMF) at TAG sites Y180 and F404 (EU), * in the sequence, unconjugated full-length IgG1/kappa; also called 2842-B01 HC3/LC1) VH: EVQLVESGGGLVQPGGSLRLSCAASGFSISSYDMSWVRQAPGKGLEWIGIIGSNGRTYYPDSVKGRFTISRDNSKNTVTLQMNSLRAEDTAVYYCARGLYDGTGNIWGQGTLVTVSS VL: DLQMTQSPSSLSASVGDRVTITCRASQSVYGNNWLSWYQQKPGKAPKLLIYGASKLASGVPSRFSGSGSGTQFTLTISSLQPEDFATYYCQGTYYSGDWYFAFGQGTKVEIKR")
7.70
>>> observed("mAb 37: aTF_2842-B01_Hc3_Y180/F404TAG pAzMeF; aTF_2842-B01_Lc2 (antibody, IgG1, V domains shown, pAzMeF at Y180 and F404 (EU), * in the sequence, unconjugated full-length IgG1/kappa, cell-free expressed; also called 2842-B01 HC3/LC2; 2842-B01-HC3/LC2 Y180/F404) VH: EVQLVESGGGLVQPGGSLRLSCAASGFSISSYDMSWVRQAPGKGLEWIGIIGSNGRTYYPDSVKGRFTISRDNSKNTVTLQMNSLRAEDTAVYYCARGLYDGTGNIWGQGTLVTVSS VL: ELVMTQSPPTLSLSPGERVTLSCRASQSVYGNNWLSWYQQKPGQAPRLLIYGASKLATSIPARFSGSGSGTQFTLTISSLQPEDFAVYYCQGTYYSGDWYFAFGQGTKVEIKR")
7.81
>>> observed("mAb 48: aTF_2842-B01_HC1_Y180/F404TAG; aTF_2842-B01_LC3 (antibody, IgG1, V domains shown, non-natural amino acid (pAMF) at TAG sites Y180 and F404 (EU), * in the sequence, unconjugated full-length IgG1/kappa; also called 2842-B01 HC1/LC3) VH: QVQVVESGGGLVKPGGSLRLSCAASGFSISSYDMSWIRQAPGKGLEWIGIIGSNGRTYYADSVKGRFTISRNTNENTVYLQMNSLRAEDTAVYYCARGLYDGTGNIWGQGTLVTVSS VL: DIQMTQSPSSLSASVGDRVTITCQASQSVYGNNWLSWYQQKPGKAPKLLIYGASKLASGVPSRFSGSGSGTDFTLTISSLQPEDFATYYCQGTYYSGDWYFAFGGGTKVEIKR")
7.22

Reference for the values: patent US20250122306A1
